Tested on: S. salivarius H-257
Conditions: read-out: ID/50; Table II, fluoride salts; S. salivarius H-257; means of triplicate experiments
Result type: IC50 (µM)
One number for each entry, in µM.

-- ask Name the recorded IC50 of the item N.N.[F-].[F-].[F-].[F-].[F-].[F-].[Sn] [Sn(NH4)2 F6, stannic ammonium fluoride] in your answer.
-- reply 400

====

Record form. Attribute: IC50. Fill in for each entry.
System: S. sanguis 10557
Settings: read-out: ID/50
Give bare numbers, in µM.

Each compound below has a reported value. Please supply its IC50.
1. [Cl-].[Cl-].[Co+2]
2. O=S(=O)([O-])[O-].[Zn+2]
3. [Cl][Sn][Cl]

-- reply
3840
400
1880

Measured values drawn from patent US4430324A for this set.
